Below is a list of entries, each paired with its recorded growth value.
- System: NCI-H460 lung
- METHOD NOTES: NCI-60 one-dose screen, 48 h (100 = growth as untreated, 0 = no growth, -100 = all killed)
- PARTICULARS: 10 µM
The panel holds about 83,000 compounds, 20% with a hit somewhere; the sample as a whole holds those more often.
Give the number; % is assumed, so skip it.

INSERT INTO assay_data (molecule, unit, observed_measurement) VALUES
  ('N#Cc1c(NC(=O)c2ccc(C(O)(C(F)(F)F)C(F)(F)F)cc2)sc2c1CCC(=O)C2', '%', 7.12),
  ('O=C(Cc1ccc2c(c1)CN(C1CCC(=O)NC1=O)C2=O)NCCc1ccccc1 (centres undefined)', '%', 110),
  ('CCCn1c(=O)c2[nH]c(-c3ccc(OCc4nc5ccc(C)cc5[nH]4)cc3)nc2n(CCC)c1=O', '%', 13),
  ('Cc1ccc2nc(-c3ccc(-c4nnc(SCC(=O)Nc5ccc(Cl)cc5)o4)cc3)[nH]c2c1', '%', 6.19),
  ('O=C1NC(=NC23CC4CC(CC(C4)C2)C3)N/C1=C\c1ccc2ncoc2c1', '%', 13.7);

GET /value?item= O=C(Nc1cccc(C(F)(F)F)c1)c1cncc(C#Cc2cnc3ccc(N4CCOCC4)nn23)c1 &field=growth returns 0.042

get_value(item= COc1ccc(C(=O)Nc2ccc(-c3ccc4c(c3)NC(=O)/C4=C\c3ccc[nH]3)cc2)cc1 , readout=growth) returns 14.9

The molecule listed as OCCCNc1oc(-c2ccccc2)nc1[P+](c1ccccc1)(c1ccccc1)c1ccccc1 has a reported growth of 3.97

Quick note, growth for Nc1nc(Nc2ccc(Cl)cc2)nn1Cc1cccc(Br)c1 landed at 17.9

---

This listing pairs compounds with measured growth.
- Test system: NCI-H522 lung
- METHOD NOTES: NCI-60 one-dose screen, 48 h (100 = growth as untreated, 0 = no growth, -100 = all killed)
- PARTICULARS: 10 µM
The panel holds about 83,000 compounds, 20% with a hit somewhere; the sample as a whole holds those more often. Active and inactive are the calls of the source. How the source made its calls: active means growth percent below 10; inactive means the rest.

The following compounds have reported results that may help.
INSERT INTO results (compound, observed_measurement) VALUES
  ('CN(CCO)c1oc(-c2ccccc2)nc1[P+](c1ccccc1)(c1ccccc1)c1ccccc1', '-9.01% (active)'),
  ('COc1cc2c(c(OC)c1OC)C(=O)CC(c1cccc(NC(=O)c3cccc(N)c3)c1)O2 (stereo not given)', '61% (inactive)'),
  ('Nc1nnc(-c2c[nH]c3ccc(F)cc23)c(-c2c[nH]c3ncccc23)n1', '52.7% (inactive)');

Measured on NCI-H522 lung, Cc1ccc(S(=O)(=O)c2nc(-c3ccccc3)oc2S(=O)(=O)CC(=O)N2CCCC2)cc1 has a documented growth of -96.3% (active)

Recorded growth for Cc1ccc(-c2nc3ccc(C(=O)N=Nc4c(O)[nH]c5ccc(Br)cc45)cc3[nH]2)cc1 on NCI-H522 lung was 25% (inactive)

---

- Test system: SNB-19 CNS
- METHOD NOTES: NCI-60 one-dose screen, 48 h (100 = growth as untreated, 0 = no growth, -100 = all killed)
- PARTICULARS: 10 µM
Compounds without any hit were thinned out: in the full panel of roughly 83,000, 20% have a hit.
Flag rule - growth less than 20% flags label 1; the remaining entries get label 0.

For orientation, consider the following solved cases.
INSERT INTO measurements (molecule, category) VALUES
  ('Nc1nc(-c2ccccc2)cs1', 'label 0'),
  ('CC(=O)Nc1ccc(-c2cn(-c3cccc(C(=O)Nc4cc(CN5CCOCC5)cc(C(F)(F)F)c4)c3)nn2)cn1', 'label 1');

Lab note: confirm whether the reported growth for this molecule is below 20%, equality not counting. molecule: O=C(NCCCCC(c1ccc(F)cc1)c1ccc(F)cc1)NCCCc1cccnc1
label 0

Lab note: growth threshold 20%. Does this molecule come in strictly under it? O=C(Nc1cccc(C(F)(F)F)c1)c1cncc(C#Cc2cnc3cccnn23)c1
label 0

Quick check: does Cc1ccc(/C(CSc2nnc(-c3c[nH]c4ccccc34)n2-c2ccccc2)=N/O)cc1 have growth under 20%?
label 1

Hello, is growth of the following molecule strictly smaller than 20%? CN1CCN(Cc2ccc(NC(=O)c3cncc(C#Cc4cnc5ccc(N[C@H]6CCOC6)nn45)c3)cc2C(F)(F)F)CC1
label 1

# check: growth < 20% for O/N=C(\CSc1nnc(-c2c[nH]c3ccccc23)n1-c1ccccc1)c1ccc(Br)cc1
label 1
